Tested on: IMC-1 (IL-2 20 ng/mL)
Experiment: percent inhibition of viability; higher = more inhibition;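 also: normalised to DMSO-only wells as negative and benzethonium chloride as positive control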
Settings: 72 h; 1 nM
reported_endpoint: percent inhibition of viability (%)
All answers are understood in %, so give the number only.

// solved cases for percent inhibition of viability follow
compound | experimental_system | percent inhibition of viability [%]
CN[C@@H](C)C(=O)N[C@H]1CN(C(=O)CC(C)C)CC[C@H]2CC[C@@H](C(=O)NC(c3ccccc3)c3ccccc3)N2C1=O [AT-406] (max concentration tested 10000 nM) | IMC-1 (IL-2 20 ng/mL) | -6.88
CCN(CC)CCOc1ccc(C(=C(Cl)c2ccccc2)c2ccccc2)cc1 [Clomifene] (max concentration tested 10000 nM) | IMC-1 (IL-2 20 ng/mL) | -0.71
Cc1cc2c(F)c(Oc3ncnn4cc(OC[C@@H](C)O)c(C)c34)ccc2[nH]1 [Brivanib] (max concentration tested 1000 nM) | IMC-1 (IL-2 20 ng/mL) | -2.37
C[C@]12O[C@H](C[C@]1(O)CO)n1c3ccccc3c3c4c(c5c6ccccc6n2c5c31)CNC4=O [Lestaurtinib] (max concentration tested 1000 nM) | IMC-1 (IL-2 20 ng/mL) | -5.94
CCN(CC)CCNC(=O)c1c(C)[nH]c(/C=C2\C(=O)Nc3ccc(F)cc32)c1C [Sunitinib] (max concentration tested 1000 nM) | IMC-1 (IL-2 20 ng/mL) | -1.04

Entry under review: O=P1(NCCCl)OCCCN1CCCl (stereo unspecified) [Ifosfamide] (max concentration tested 10000 nM) . Reported percent inhibition of viability? -7.45

Entry under review: NC1(c2ccc(-c3nc4ccn5c(=O)[nH]nc5c4cc3-c3ccccc3)cc2)CCC1 [MK-2206] (max concentration tested 1000 nM) . Reported percent inhibition of viability? -1.09

Entry under review: Cc1csc(-c2nnc(Nc3ccc(Oc4ncccc4-c4ccnc(N)n4)cc3)c3ccccc23)c1 [AMG-900] (max concentration tested 1000 nM) . Reported percent inhibition of viability? -6.98

Entry under review: O=C(CCCCCCNC(=O)c1cnc(N(c2ccccc2)c2ccccc2)nc1)NO [Rocilinostat] (max concentration tested 10000 nM) . Reported percent inhibition of viability? -4.44

Entry under review: Cn1c(=O)n(-c2ccc(C(C)(C)C#N)cc2)c2c3cc(-c4cnc5ccccc5c4)ccc3ncc21 [Dactolisib] (max concentration tested 1000 nM) . Reported percent inhibition of viability? 0.4

Entry under review: Cn1c(Nc2ccc(C(F)(F)F)cc2)nc2cc(Oc3ccnc(-c4ncc(C(F)(F)F)[nH]4)c3)ccc21 [RAF265] (max concentration tested 1000 nM) . Reported percent inhibition of viability? -2.17

###

System: normal primary NK cells, pool 2 (3 donors) (IL-2 2.5 ng/mL)
Experiment: percent inhibition of viability; higher = more inhibition
Conditions: 72 h; 10 nM
reported_endpoint: percent inhibition of viability (%)
All answers are understood in %, so give the number only.

// solved cases for percent inhibition of viability follow
compound | experimental_system | value
NC1(c2ccc(-c3nc4ccn5c(=O)[nH]nc5c4cc3-c3ccccc3)cc2)CCC1 [MK-2206] (max concentration tested 1000 nM) | normal primary NK cells, pool 2 (3 donors) (IL-2 2.5 ng/mL) | 8.98
C=CCN(/C=C1/C(=O)O[C@H](COC)[C@@]2(C)C1=C(O)C(=O)C1=C2[C@H](OC(C)=O)C[C@]2(C)C(=O)CC[C@@H]12)CC=C [Sonolisib] (max concentration tested 10000 nM) | normal primary NK cells, pool 2 (3 donors) (IL-2 2.5 ng/mL) | 0.64
CC(C)(C)NC(=O)[C@H]1CC[C@H]2[C@@H]3CC[C@H]4NC(=O)C=C[C@]4(C)[C@H]3CC[C@]12C [Finasteride] (max concentration tested 10000 nM) | normal primary NK cells, pool 2 (3 donors) (IL-2 2.5 ng/mL) | -1.25

Entry under review: O=C1NC(=O)[C@@H](c2cn3c4c(cccc24)CCC3)[C@@H]1c1c[nH]c2ccccc12 [Tivantinib] (max concentration tested 1000 nM) . Reported percent inhibition of viability? -6.73

Entry under review: CCc1cnn2c(NCc3ccc[n+]([O-])c3)cc(N3CCCC[C@H]3CCO)nc12 [Dinaciclib] (max concentration tested 1000 nM) . Reported percent inhibition of viability? 90.3

Entry under review: O=C(CCCCCCNC(=O)c1cnc(N(c2ccccc2)c2ccccc2)nc1)NO [Rocilinostat] (max concentration tested 10000 nM) . Reported percent inhibition of viability? -6.43

Entry under review: Cc1ccc(Nc2nccc(N(C)c3ccc4c(C)n(C)nc4c3)n2)cc1S(N)(=O)=O [Pazopanib] (max concentration tested 10000 nM) . Reported percent inhibition of viability? -14.4

Entry under review: Cn1c(=O)n(-c2ccc(C(C)(C)C#N)cc2)c2c3cc(-c4cnc5ccccc5c4)ccc3ncc21 [Dactolisib] (max concentration tested 1000 nM) . Reported percent inhibition of viability? 17.1

Entry under review: NC(=O)Nc1cc(-c2cccc(F)c2)sc1C(=O)N[C@H]1CCCNC1 [AZD7762] (max concentration tested 1000 nM) . Reported percent inhibition of viability? -7.48
